# measurementProtocol: binders of probe aFGF10 on microarray, primary screen, stem cell growth factor project, biochemical, small-molecule microarray, fluorescence 635/667 (AID 1071);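 also: score merges 667 nm spot intensity and signal to noise from triplicate slides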
# conditionSummary: higher = more signal
# composite z-score per record follows
The answer should be written as a number, with no unit following it.

// known answers, use as guide
>>> print(df.to_string())
                                   compound  experimentalresult
0  CC(C)(C)N1C(=O)[C@H]2[C@H]3[C@H](O)[C@H](O)CC(=NOC[C@@H](O)COCc4ccco4)[C@@H]3CC[C@H]2C1=O               0.112
1  COCCNC(=O)OCC1CCCC2(CC(OC(=O)NCc3cccc4ccccc34)CC(CCC(=O)N[C@@H](C)C(=O)OC)O2)O1 (some centres not stated)               0.662
2  CCOC(=O)NN=C1C[C@@H](O)[C@@H](O)[C@@H]2[C@@H]3C(=O)N(c4ccc(F)cc4F)C(=O)[C@@H]3CC[C@H]12               0.202

Consider the compound shown here: C=CC[C@@H]1C=C[C@H](ON=CC[C@@H]2C=C[C@H](OC(C)=O)[C@@H](COC(C)=O)O2)[C@@H](CO)O1 What is its recorded composite z-score?
0.75

Consider the compound shown here: CCN1C(=O)[C@H]2[C@H]3[C@H](O)[C@H](O)CC(=NOCC=C(C)CCC=C(C)C)[C@@H]3CC[C@H]2C1=O What is its recorded composite z-score?
0.483

Consider the compound shown here: CCOC(=O)[C@H](Cc1ccccc1)NC(=O)CCC1CC(OC(=O)NCc2ccc3c(c2)OCO3)CC2(CCCC(COC(=O)NCCOC)O2)O1 (some centres not stated) What is its recorded composite z-score?
0.688

====

# measurementProtocol: basal HepG2 mitochondrial membrane potential changes, profiling panel, cell-based, JC-1 fluorescence, 24 h, 100 nL compound (AID 1167); also: test concentration not given here
# conditionSummary: higher = more signal
Each entry falls in a class defined on z-score; the bands are low bin (below -0.4), mid bin (-0.4 to below 0.2), high bin (0.2 or more)

Observe how each entry below is paired with its result.
In [3]: df
Out[3]:
                                   compound  grouplabel
0  CCCCOC(OCCCC)C(O)CSc1ccc2ccccc2c1 (stereo unspecified)     mid bin
1  COC(=O)[C@H](C)NC(=O)CCC1CC(OC(=O)NCc2cccc3ccccc23)CC2(CCCC(COC(=O)NCCCN3CCCC3=O)O2)O1 (stereo partly specified)    high bin

Returns: class label. Input: COC(=O)[C@H](Cc1ccccc1)NC(=O)[C@@H](C)CO
high bin

Returns: class label. Input: CC(C)(C)N1C(=O)[C@H]2[C@H]3[C@H](O)[C@H](O)CC(=NOC[C@@H](O)COCc4ccco4)[C@H]3CC[C@H]2C1=O
mid bin

Returns: class label. Input: O=C1C2=CC[C@H]3C(=O)N(c4ccc(F)cc4F)C(=O)[C@H]3[C@H]2[C@H](O)[C@@H]2O[C@H]12
mid bin

Returns: class label. Input: COCCNC(=O)OCC1CCCC2(CC(OC(=O)NCc3cccc4ccccc34)CC(CCC(=O)N[C@@H](C)C(=O)OC)O2)O1 (stereo partly specified)
high bin

Returns: class label. Input: CC(C)=CCCC(C)=CCON=C1C[C@@H](O)[C@@H](O)[C@@H]2[C@@H]3C(=O)N([C@@H](C)c4ccccc4)C(=O)[C@@H]3CC[C@@H]12
low bin

====

# measurementProtocol: osmotic lysis modulators in infected erythrocytes, primary screen, PSAC antagonist project, cell-based, P. falciparum Indochina, OD700, 3 h (AID 1156)
# conditionSummary: higher = more signal, called active from +8 up or from −8 down
Everything with z-score lower than -0.009 is f; everything else, including exactly -0.009, is t.

Observe how each entry below is paired with its result.
molecule	groupLabel
CO[C@@H]1C=CCC(=O)N[C@@H](C)C(=O)OC[C@@H](OC)[C@H](C)C=CCC(=O)OC[C@H]1C	t
C#CCCCON=C1C[C@@H](O)[C@@H](O)[C@@H]2[C@@H]3C(=O)N(C4CCCCC4)C(=O)[C@@H]3CC[C@@H]12	f
CC(C)=CCCC(C)=CCON=C1[C@H]2CCn3c(=O)n(-c4ccccc4)c(=O)n3[C@H]2[C@H](O)[C@@H]2O[C@H]12	t
O=C1[C@H]2[C@H]3[C@H](O)[C@H](O)CC(=NOCc4ccccc4)[C@@H]3CC[C@H]2C(=O)N1c1cccc(Oc2ccccc2)c1	t
CCOC(=O)[C@H](Cc1ccccc1)NC(=O)CCC1CC(OC(=O)NCc2ccc3c(c2)OCO3)CC2(CCCC(COC(=O)NCCCN3CCCC3=O)O2)O1 (some centres not stated)	t

Okay, now this molecule:
# bool: z-score of COC(OC)[C@@H](C)[C@H](OC)[C@@H](C)[C@H](OC)c1ccccc1 >= -0.009
f

====

# z-score per record follows
# measurementProtocol: E. coli acrAB mutant growth effects, primary screen, E. coli filamentation inducers, strain DRC39, OD650, 24 h (AID 1178);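 also: growth measured as culture turbidity by optical density at 650 nm; test concentration not given here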
# conditionSummary: higher = more signal, called active from +8 up or from −8 down
The answer should be written as a number, with no unit following it.

Consider the compound shown here: CC(C)[C@@H](OCc1ccccc1)[C@H](C)C=NO[C@@H](C)c1cn([C@H](CO)Cc2ccccc2)nn1 What is its recorded z-score?
0.805

Consider the compound shown here: C[C@@H]1CC[C@H]2C(=O)OC(CN3C(=O)c4ccccc4C3=O)CN2[C@H]1c1ccc(Br)cc1 (stereo partly drawn) What is its recorded z-score?
0.786

Consider the compound shown here: CC(C)CON=C1C[C@@H](O)[C@@H](O)[C@@H]2[C@@H]3C(=O)N(C(C)(C)C)C(=O)[C@@H]3CC[C@@H]12 What is its recorded z-score?
0.796

====

# experimentalSystem: Follistatin-related protein 3 (Homo sapiens) (UniProt O95633)
# Sequence (O95633 whole entry, looked up): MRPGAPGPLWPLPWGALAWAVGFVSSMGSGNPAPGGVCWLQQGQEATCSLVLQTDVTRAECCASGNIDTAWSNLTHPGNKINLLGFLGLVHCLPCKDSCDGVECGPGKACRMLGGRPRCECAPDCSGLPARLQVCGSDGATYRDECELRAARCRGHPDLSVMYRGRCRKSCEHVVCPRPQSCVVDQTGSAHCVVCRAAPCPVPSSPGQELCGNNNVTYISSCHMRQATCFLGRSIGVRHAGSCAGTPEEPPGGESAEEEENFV
# measurementProtocol: FSTL3 binders on small-molecule microarrays, primary screen, biochemical, small-molecule microarray, 635 nm fluorescence (AID 1105);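 also: score merges emission near 667 nm and signal to noise per printed spot across three slides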
# conditionSummary: FSTL3 binding, higher = more signal
Everything with composite z-score lower than 0.8 is NOT MET; everything else, including exactly 0.8, is MET.

Observe how each entry below is paired with its result.
>>> df
                                smilesentry                        experimentalsystem  grouplabel
0  C=CC[C@@H]1C=C[C@H](ON=C2C[C@@H](O)[C@@H](O)[C@@H]3[C@@H]4C(=O)N(CC)C(=O)[C@@H]4CC[C@@H]23)[C@@H](CO)O1  Follistatin-related protein 3 (Homo sapiens) (UniProt O95633)     NOT MET
1  CC(C)[C@@H](OCc1ccccc1)[C@H](C)C=NO[C@@H](C)c1cn([C@H](CO)Cc2ccccc2)nn1  Follistatin-related protein 3 (Homo sapiens) (UniProt O95633)     NOT MET
2  CC(=O)OC[C@H]1O[C@H](C#CCCc2ccccc2)C=C[C@@H]1OC(C)=O  Follistatin-related protein 3 (Homo sapiens) (UniProt O95633)         MET
3  Cc1ccc2[nH]c3nc(CCCn4ccnc4-c4ccccc4)nnc3c2c1  Follistatin-related protein 3 (Homo sapiens) (UniProt O95633)         MET

# bool: composite z-score of C=CC[C@@H]1C=C[C@H](ON=C(C)CCN2CCCCc3nc(C)c(C)cc32)[C@@H](CO)O1 >= 0.8
MET

# bool: composite z-score of CC(=O)OC[C@H]1O[C@H](CC=NOCC[C@@H]2C=C[C@H](OC(C)=O)[C@@H](COC(C)=O)O2)C=C[C@@H]1OC(C)=O >= 0.8
NOT MET

====

# measurementProtocol: small-molecule microarray binders of probe aDKK1, primary screen, biochemical, biotinylated probe, 635/667 nm fluorescence (AID 1099);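 also: score merges 667nm spot fluorescence with signal to noise across triplicate slides; reference of the scale not given here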
# conditionSummary: higher = more signal
# composite z-score per record follows
The answer should be written as a number, with no unit following it.

// known answers, use as guide
compound	measureName	experimentalResult
CC(C)=NOC(C)CN1CCCc2nc(C)c(C)cc21 (stereo unspecified)	composite z-score	-0.446
COC(=O)[C@@H]1CC[C@H](C)[C@@H](c2ccc(C)cc2)N1C(=O)c1ccc(C=NO[C@@H](C)c2cc(-c3c(C)cc(C)cc3C)no2)cc1	composite z-score	-0.12
CCOC(=O)CCN1C(=O)[C@H]2[C@H]3[C@H](O)[C@H](O)CC(=NOCC=C(C)CCC=C(C)C)[C@H]3CC[C@H]2C1=O	composite z-score	0.28
COc1cccc([C@H]2Oc3ccc(OC)cc3C(=NOCC[C@@H]3C=C[C@H](OC(C)=O)[C@@H](COC(C)=O)O3)[C@@H]2O)c1	composite z-score	0.0266
COC(=O)[C@H](C)NC(=O)CCC1CC(OC(=O)NCCc2ccc(F)cc2)CC2(CCCC(COC(=O)NCCc3ccccc3OC)O2)O1 (stereo partly specified)	composite z-score	-0.0554
CC(CCN1CCc2nc(-c3ccccc3)c(-c3ccccc3)cc2C1)=NO[C@@H](C)c1cc(-c2c(C)cc(C)cc2C)no1	composite z-score	-0.0029
C[C@@H]1CC[C@H]2C(=O)OC(Cc3ccccc3)CN2[C@H]1c1ccc(Br)cc1 (stereo partly specified)	composite z-score	-0.193
COC(=O)[C@@H]1CC[C@H](C)[C@@H](c2ccc(C)cc2)N1C(=O)c1ccc(C=NOC[C@@H](O)[C@H]2O[C@@H]3OC(C)(C)O[C@@H]3[C@H]2O)cc1	composite z-score	0.0861

Consider the compound shown here: CCOC(=O)[C@H](Cc1ccccc1)NC(=O)CCC1CC(OC(=O)NCCc2ccc(F)cc2)CC2(CCCC(COC(=O)NCc3cccc(C(F)(F)F)c3)O2)O1 (stereo partly specified) What is its recorded composite z-score?
-0.139

Consider the compound shown here: Cc1cc(C)c(-c2cc([C@H](C)ON=C[C@@H](C)[C@H](OCc3ccccc3)C(C)C)on2)c(C)c1 What is its recorded composite z-score?
-0.143

Consider the compound shown here: CC(C)[C@@H](OCc1ccccc1)[C@H](C)C=NO[C@@H](C)c1cn([C@H](CO)Cc2ccccc2)nn1 What is its recorded composite z-score?
-0.215

Consider the compound shown here: CCN1C(=O)[C@H]2[C@H]3[C@H](O)[C@H](O)CC(=NOC[C@@H](O)COCc4ccco4)[C@H]3CC[C@H]2C1=O What is its recorded composite z-score?
-1

Consider the compound shown here: C=CC[C@@H]1C=C[C@H](ON=C(C)CCN2CCCCc3nc(C)c(C)cc32)[C@@H](CO)O1 What is its recorded composite z-score?
-0.406

Consider the compound shown here: C[C@@H]1CC[C@H]2C(=O)OC(CN3C(=O)c4ccccc4C3=O)CN2[C@H]1c1ccc(Br)cc1 (stereo partly specified) What is its recorded composite z-score?
-0.117

Consider the compound shown here: COC(=O)CC=C[C@@H](C)[C@@H](C=NOC[C@@H](C)[C@H](OCc1ccccc1)C(C)C)OC What is its recorded composite z-score?
-0.325

Consider the compound shown here: O=C1C=C[C@@H](O)[C@@H]2[C@@H]3C(=O)N(Cc4ccc5c(c4)OCO5)C(=O)[C@@H]3CC[C@@H]12 What is its recorded composite z-score?
-0.0574
